Below, each entry is listed alongside its reported IC50.
# measured-on: full-length beta-Catenin (Uniprot ID P35222) (Homo sapiens (Human)) (UniProt P35222)
# Sequence (P35222 whole entry): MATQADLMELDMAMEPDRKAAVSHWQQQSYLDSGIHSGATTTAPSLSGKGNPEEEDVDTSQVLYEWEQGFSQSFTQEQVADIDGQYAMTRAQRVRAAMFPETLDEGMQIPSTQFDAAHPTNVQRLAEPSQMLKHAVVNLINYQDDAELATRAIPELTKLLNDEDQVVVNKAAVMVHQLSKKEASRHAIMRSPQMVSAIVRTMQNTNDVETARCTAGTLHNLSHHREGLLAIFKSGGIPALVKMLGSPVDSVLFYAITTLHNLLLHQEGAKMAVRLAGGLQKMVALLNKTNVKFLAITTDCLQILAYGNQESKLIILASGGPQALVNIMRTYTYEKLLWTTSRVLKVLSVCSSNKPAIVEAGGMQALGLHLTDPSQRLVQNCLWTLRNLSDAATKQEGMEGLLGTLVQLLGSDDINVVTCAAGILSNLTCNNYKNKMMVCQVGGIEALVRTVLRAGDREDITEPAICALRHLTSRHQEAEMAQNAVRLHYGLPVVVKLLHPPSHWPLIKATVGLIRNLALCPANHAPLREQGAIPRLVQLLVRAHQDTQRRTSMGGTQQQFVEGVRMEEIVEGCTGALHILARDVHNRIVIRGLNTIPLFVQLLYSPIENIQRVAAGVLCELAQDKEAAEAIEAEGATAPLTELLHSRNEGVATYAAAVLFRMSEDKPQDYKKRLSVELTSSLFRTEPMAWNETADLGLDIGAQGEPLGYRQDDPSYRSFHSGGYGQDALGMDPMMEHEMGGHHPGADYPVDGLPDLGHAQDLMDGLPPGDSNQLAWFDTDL
# method-summary: fluorescence polarization competition against 5FAM-TCF4 10-53
Starred links: 1 amine or outer side, 2 acyl side, 3 side chain; linkers in the order of their positions; H or OH if unused. Positions of bridges follow the written chain, without caps; N, C: chain ends. Non-standard residues stand in square brackets, D forms with d. Primed or numbered codes have the meaning given here. PyrS2″ = (S)-3-amino-1-((pent-4-en-1-yloxy)carbonyl)pyrrolidine-3-carboxylic acid (stapling residue), C=CCCCOC(=O)N1CC[C@@](N[*:1])(C(=O)[*:2])C1; B5(5) = 2,2-bis(4-pentenyl)glycine, 2-amino-2-(pent-4-en-1-yl)hept-6-enoic acid (stitching residue), C=CCCCC(CCCC=C)(N[*:1])C(=O)[*:2]; 5F3Me3COOHF = (S)-3-(2-amino-2-carboxyethyl)-5-(trifluoromethyl)benzoic acid, O=C([C@H](Cc1cc(C(=O)[*:3])cc(C(F)(F)F)c1)N[*:1])[*:2]; PyrS2 = (S)-3-amino-1-((pent-4-en-1-yloxy)carbonyl)pyrrolidine-3-carboxylic acid, C=CCCCOC(=O)N1CC[C@@](N[*:1])(C(=O)[*:2])C1; (CyPr)‑3SF = (S)-2-amino-3-(3-cyclopropylphenyl)propanoic acid, O=C([C@H](Cc1cccc(C2CC2)c1)N[*:1])[*:2]; B5(3) = 2,2-bis(4-pentenyl)glycine (stitching residue), C=CCCCC(CCCC=C)(N[*:1])C(=O)[*:2]; Phe(3-Ph) = N[C@@H](Cc1cccc(-c2ccccc2)c1)C(=O)O; Phe(3-COOH) = N[C@@H](Cc1cccc(C(=O)O)c1)C(=O)O; 2F3MeF = Cc1cccc(C[C@H](N[*:1])C(=O)[*:2])c1F; Bta = N[C@@H](Cc1csc2ccccc12)C(=O)O; αAllylPro = C=CC[C@@]1(C(=O)O)CCCN1; tBuAla = CC(C)(C)C[C@H](N)C(=O)O; 3Thi = N[C@@H](Cc1ccsc1)C(=O)O; 34ClF = not defined here

binder	IC50 (nM)
Ac-[αAllylPro]D[tBuAla][B5(3)]D[Phe(3-COOH)]AAFL[PyrS2″][Phe(3-Ph)]FQ-NH2 (staple 1-4, 4-11) [I-2214]	1860
Ac-[αAllylPro]D[tBuAla][B5(3)]D[Phe(3-COOH)]AAFL[PyrS2″][(CyPr)‑3SF]FQ-NH2 (staple 1-4, 4-11) [I-2215]	1540
Ac-[αAllylPro]D[tBuAla][B5(5)]D[5F3Me3COOHF]QAFL[PyrS2][3Thi][Bta]A-NH2 (staple 1-4, 4-11) [I-2211]	23
Ac-[αAllylPro]D[tBuAla][B5(3)]D[Phe(3-COOH)]QAFL[PyrS2″][2F3MeF][34ClF]A-NH2 (staple 1-4, 4-11; reading uncertain) [I-2219]	21

Origin of the recorded values: patent US20240116985A1
